B1: Poly(rC)-binding protein 1, residues 278 to 350; numbered along this chain, Q15365 (parent)
chain: TQTTHELTIPNNLIGCIIGRQGANINEIRQMSGAQIKIANPVEGSSGRQVTITGSAASISLAQYLINARLSSE

Variants of: B1
ASSAY PROTOCOL: abundance fitness (aPCA) (normalised: wild type 0, dead -1); higher = more abundant; growth selection in yeast, the domain comes from the species named
CONDITION SET: Homo sapiens
Would you please tag the item Y when its abundance fitness is -0.1 or above, and N when it is below?

MUTANT LABEL | GROUP
Q35V | N
S60E | Y
A56H | Y
A23Y | N
T4V | Y
I59D | N
Y64H | Y
I14L | N
R29E | Y
V50R | N
S46Q | Y

Origin of measurements: the Human Domainome abundance scans (Beltran et al. 2025)
